Experiment: 14-day oral gavage toxicokinetic study in rats
Format: in vivo
Settings: both sexes, rat, plasma, po, 15 mg/kg, oral 15 mg/kg, Study Day 14, Overall; read-out: t½ (converted)
Readout kind: half-life
I'd appreciate it if you included the unit after the number.

# query: half-life of entry CN1CCN(c2ccc(Nc3ncc4cc5n(c4n3)C3(CCCCC3)CNC5=O)nc2)CC1 [Compound 1]
4.47 h

* * *

Assay: 14-day oral gavage toxicokinetic study in rats
Assay type: in vivo
Settings: male, rat, plasma, po, 5 mg/kg, oral 5 mg/kg, Study Day 1, Male
Protocol: Plasma was obtained from blood samples collected from rats in a composite sampling scheme, with 3 samples collected per sex, per dose, at each target collection time, as illustrated in Table 21 to Table 25. […] The following parameters were determined: […] A value of 0 ng/mL was assigned to all values below the lower limit of quantitation (BLQ, <10.0 ng/mL). […] CL: Clearance (L/h/kg), calculated as the dose divided by AUC(0-t). […] Cmax/Dose: Normalized Cmax, calculated as Cmax divided by total dose. […]
Readout kind: AUC(0-inf) (ng·h/mL)
Could you give me the number in ng·h/mL? Just the number is fine.

# query: AUC(0-inf) of entry `CN1CCN(c2ccc(Nc3ncc4cc5n(c4n3)C3(CCCCC3)CNC5=O)nc2)CC1`
4850
